- Measurement notes: gradient 5% acetonitrile 3 min, to 50% in 2 min, to 85% in 15 min, held 3 min, 100 µL/min
- Measurement conditions: column: Zorbax Extend-C18 2.1 x 50 mm; eluents: water / acetonitrile, 0.1% formic acid
Experimental readout: RP-LC retention time (s)
Give just the numeric value; s need not be written.

Answered examples (8):
CCn1c(C)c(-c2nc(C3CC3)no2)c(S(=O)(=O)NC2CCCC2)c1C = 1060
Cc1ccccc1CNC(=O)c1ccc2c(c1)Sc1ncccc1C(=O)N2C = 789
Cc1cc(C)cc(NC(=O)CN2CCN(Cc3ccccc3)C(=O)C2=O)c1 = 782
CCC1CCCCN1C(=O)c1cnc2nc(C)ccc2c1Nc1cc(OC)cc(OC)c1 (centres undefined) = 674
CCCn1c(=O)sc2cc(S(=O)(=O)N3CCC(C(=O)NCc4ccc(F)cc4)CC3)ccc21 = 934
Cc1ccc(C2CC(=O)c3cnc(Nc4nc(C)c5cccc(C)c5n4)nc3C2)cc1 (centres undefined) = 794
CC(C)NC(=O)c1ccc(OCC2CCCN(C(=O)Cc3ccccc3Cl)C2)cc1 (centres undefined) = 899
CCc1ccc(CN2CCC([C@@H]3CNC[C@H]3CO)CC2)cc1 = 558

Next molecule, RP-LC retention time to be filled in.
**Q:** Consider the molecule `CC(C)c1ccc(NC(=O)C2CCN(S(=O)(=O)c3cn(C)cn3)CC2)cc1` and give its measured RP-LC retention time.
**A:** 797
